PROTOCOL_NOTES: yeast display, Sf9 membrane polyspecificity reagent, FACS + sequencing; frameworks hold sequencing errors
READOUT_KIND: polyreactivity (PSR sort gate)

>>> result("QVQLVESGGGLVQAGGSLRLSCAAAGIIFISYDMGWYRPAPGKDRELVARINWDGGSTYYADSVKGRFTISRDKAKHTFYLQTNTLKPEDTAVSYCAAGFVGTNYPLQGFSYEYWGPGTQVTVSS")
"low polyreactivity"
>>> result("QVQLVESGGGLVQAGGSLRLSCAASGSIFRTYTMGWYRQAPGKEREFVAAISRSGGSTYYADSVKGRFTISRDNAKNTVYLQMNSLKPEDTAVYYCNARWGLGSYGYWGQGTQVTVSS")
"high polyreactivity"
>>> result("QVQHVESGGGLVQAGGSLRLSCAASGFTFAIYGKGWYRQAPGKERELVAAINWSGGRTYYADSVKGRFTISRDNAKNTVYVQMQSLKPDDTAVYYCAARYVSRWYDYEFWGQGTQVTVSS")
"high polyreactivity"
>>> result("QVQLVESGGGVVQAGGSLRLSCAASGSNFDRNAMGWYRQAPGKERELVAAISRSGGSTNYADSVKGRFTISRDNAKNTFYLQMNSLKPEVTAVYYCAAVRTHWFGQGWAVYWFEYWGQGTQVTVSS")
"low polyreactivity"
>>> result("QVQLVESGGGLVQAGGSLRLSCAASGRIFYLYAMGWYRQAHGKERELVATINTSGGITYYADSVKGRFTISLDNAKNTVYLQLNSLIPEDTAVYYCNADWEWQYFYFRPGGYWGQGTQETVSS")
"low polyreactivity"
>>> result("QVQLVESGGGLVQAGGSLRLSCAASGSIFDINAMGWYRQAPGKERELVAAISYGGGSTSYADSVKGRFTISRDNAKNTVYLQMNSLKPEDTAVYYCAAGYTQSPRDDSWGQGTQVTVSS")
"low polyreactivity"
>>> result("QVHLVESGGGLVQAGGSLRLSCAASGRIFAWNSMGWYRQAPGKERELVAAITYNGGSTYYADSVKGRFTISRDNAKNTVYLQMNSLKPEDTAVYYCNKVTRSPAQGYGYWGQGTQVTVSS")
"high polyreactivity"
>>> result("QVQLVESGGGLVQAGGSLRLSCAPSGSIFAYYAMGWYRPAPGKERELVAAISKSGGRTYYADSVKGRFTISRDNAKNTVYLQMNSLKPEDTAVYYCAADGPGYTYDYWGQGTQVTVSS")
"high polyreactivity"
>>> result("QVQLVESGGGLVQAGGSLRLSCAASGFIFATNTMGWYRQAPGKERELVAASSTYYADSVKGRFTISRDNAKNTVYLQMNSLKPEDTAVYYCNADRDSYIGFDLSESDYWGQGTQVTVSS")
"low polyreactivity"
>>> result("QVQLVESGGGLVQAGGSLRLSCAASGSIFIGNTMGWYRQAPGKERELVATIRRSGSRTYYADSVKGRFTISRDNAKNTVYLQLNSLKPEDTAVYYCAADRLRSSGYKTIYDYWGQGTQVTVSS")
"low polyreactivity"

Reported polyreactivity (PSR sort gate) for `QVQLVESGGGLVQAGGSLRLSCAASGFTFWYYAMGWYRQAPGKERELVATITSGDSTKYADSVKGRFTISRDNAKNTVYLQMNSLKPEDTAVYYCAAEKVLPFIGYDYWGQGTQVTVSS` was low polyreactivity
